- subjectOfTest: UBE2L6
- methodNotes: reporter assay of Huesken 2005
- appliedConditions: siRNA
Oligonucleotides are written 5' to 3', each unit as a sugar letter and its base; * is a phosphorothioate linkage, no mark a phosphodiester; rarer units and linkages stand in square brackets, end groups in braces. Plain capitals give the bases only. d = 2'-deoxy (DNA); r = 2'-OH (RNA)
Given measured normalised inhibition (eCFP-eYFP dual reporter), output Yes if it is greater than or equal to 90% and No if not.

Examples from the recorded data:
Lookup: Determine whether this substance has normalised inhibition (eCFP-eYFP dual reporter) no lower than 90%: sense rCrGrCrUrCrUrCrCrUrCrCrUrArCrCrCrGrArCdTdT / antisense rGrUrCrGrGrGrUrArGrGrArGrGrArGrArGrCrGdTdG
Found: No

Lookup: What about sense rArUrUrCrArCrArArCrCrArArGrArUrCrUrArCdTdT / antisense rGrUrArGrArUrCrUrUrGrGrUrUrGrUrGrArArUdTdT ?
Found: No

Others:
Lookup: Determine whether this substance has normalised inhibition (eCFP-eYFP dual reporter) no lower than 90%: sense rCrUrGrArCrArCrArGrArArUrCrCrGrGrArGrCdTdT / antisense rGrCrUrCrCrGrGrArUrUrCrUrGrUrGrUrCrArGdCdA
Found: No

Lookup: What about sense rUrGrGrArArGrCrCrUrUrGrCrArCrCrArArGrAdTdT / antisense rUrCrUrUrGrGrUrGrCrArArGrGrCrUrUrCrCrAdGdT ?
Found: No

Lookup: What about sense rArGrCrGrArUrGrArUrGrCrCrArArUrGrUrCrCdTdT / antisense rGrGrArCrArUrUrGrGrCrArUrCrArUrCrGrCrUdGdG ?
Found: No

Lookup: What about sense rGrCrGrArUrGrArUrGrCrCrArArUrGrUrCrCrUdTdT / antisense rArGrGrArCrArUrUrGrGrCrArUrCrArUrCrGrCdTdG ?
Found: Yes

Lookup: What about sense rCrArCrArGrArArUrCrCrGrGrArGrCrUrGrUrUdTdT / antisense rArArCrArGrCrUrCrCrGrGrArUrUrCrUrGrUrGdTdC ?
Found: Yes

Lookup: What about sense rGrUrGrGrCrArCrGrCrUrCrUrCrCrUrCrCrUrAdTdT / antisense rUrArGrGrArGrGrArGrArGrCrGrUrGrCrCrArCdAdC ?
Found: Yes

* * *

- subjectOfTest: TMEM63B
- methodNotes: reporter assay of Huesken 2005
- appliedConditions: siRNA
Oligonucleotides are given in HELM: sugar(base)linkage, 5' to 3'; d 2'-deoxyribose, r ribose, m 2'-O-methylribose, p phosphate. ss, as = sense and antisense strand
readoutName: normalised inhibition (eCFP-eYFP dual reporter) (%)
Write the value in % as a bare number.

For orientation, consider the following solved cases.
Lookup: Which normalised inhibition (eCFP-eYFP dual reporter) is reported for this substance? RNA1{r(C)p.r(U)p.r(U)p.r(U)p.r(U)p.r(C)p.r(C)p.r(A)p.r(C)p.r(C)p.r(A)p.r(U)p.r(G)p.r(C)p.r(G)p.r(C)p.r(A)p.r(C)p.r(G)p.d(T)p.d(T)}|RNA2{r(C)p.r(G)p.r(U)p.r(G)p.r(C)p.r(G)p.r(C)p.r(A)p.r(U)p.r(G)p.r(G)p.r(U)p.r(G)p.r(G)p.r(A)p.r(A)p.r(A)p.r(A)p.r(G)p.d(A)p.d(A)}$$$RNA1{StrandType:ss}|RNA2{StrandType:as}$
Found: 0

Lookup: What about RNA1{r(C)p.r(A)p.r(C)p.r(C)p.r(C)p.r(A)p.r(G)p.r(U)p.r(U)p.r(C)p.r(U)p.r(U)p.r(C)p.r(C)p.r(C)p.r(C)p.r(A)p.r(C)p.r(C)p.d(T)p.d(T)}|RNA2{r(G)p.r(G)p.r(U)p.r(G)p.r(G)p.r(G)p.r(G)p.r(A)p.r(A)p.r(G)p.r(A)p.r(A)p.r(C)p.r(U)p.r(G)p.r(G)p.r(G)p.r(U)p.r(G)p.d(A)p.d(T)}$$$RNA1{StrandType:ss}|RNA2{StrandType:as}$ ?
Found: 56.1

Others:
Lookup: Which normalised inhibition (eCFP-eYFP dual reporter) is reported for this substance? RNA1{r(G)p.r(C)p.r(A)p.r(A)p.r(C)p.r(G)p.r(C)p.r(C)p.r(A)p.r(U)p.r(G)p.r(G)p.r(A)p.r(C)p.r(C)p.r(U)p.r(G)p.r(C)p.r(U)p.d(T)p.d(T)}|RNA2{r(A)p.r(G)p.r(C)p.r(A)p.r(G)p.r(G)p.r(U)p.r(C)p.r(C)p.r(A)p.r(U)p.r(G)p.r(G)p.r(C)p.r(G)p.r(U)p.r(U)p.r(G)p.r(C)p.d(C)p.d(G)}$$$RNA1{StrandType:ss}|RNA2{StrandType:as}$
Found: 71.1
